Test details: Chamelogk chameleonicity descriptor
Assay type: physicochemical
Run parameters: >0.6 = chameleons, <0.6 = non-chameleons
Property name: Chamelogk
Lab note: record the figure alone, no unit after it.

Field request: Chamelogk | item: Cn1cc2c3nc(ncc31)Nc1cnn(c1)CCCNCCOc1ccc-2cc1 [Compound 5a]
1.76

Continuing:
Field request: Chamelogk | item: Cn1cc2c3nc(ncc31)Nc1cnn(c1)CCCNC(=O)COc1ccc-2cc1 [Compound 5b]
0.61

Field request: Chamelogk | item: Cc1ccc(C(=O)Nc2cccc(C(F)(F)F)c2)cc1-c1cc2nc(Nc3cnn(C)c3)ncc2[nH]1 [Compound 1]
0.99

Field request: Chamelogk | item: O=C1COc2ccc(cc2)Nc2ccnc(n2)Nc2cnn(c2)CCCN1 [Compound 6b]
1.95

Field request: Chamelogk | item: c1cc2nc(n1)Nc1cnn(c1)CCCNCCOc1ccc(cc1)N2 [Compound 6a]
1.63
